From: patent US12637438B2

- System: Amaranthus retroflexus (AMARE)
- Assay Explanation: Post-emergence herbicidal activity, spray at 100 ppm
- Assay type: in vivo
- Experimental Conditions: % visual injury compared to treatment control 7 days after treatment
Value Kind: Post-emergence % control (100 PPM) AMARE (%)
The reply should be a number in %, with the unit left off.

C#CCN1C(=O)COc2cc(F)c(-c3ccc(Cl)c(Cl)c3Cl)cc21 [Compound 920-6, reference compound] = 85
C#CCN1C(=O)COc2cc(F)c(-c3c(Cl)cc(C(F)(F)F)cc3Cl)cc21 [Compound 920-4, reference compound] = 89
C#CCN1C(=O)C(F)(F)Oc2cc(F)c(-c3c(F)cc(F)c(F)c3F)cc21 = 100

Ask: Recall the reported Post-emergence % control (100 PPM) AMARE of C#CCN1C(=O)COc2cc(F)c(-c3c(F)cc(F)c(F)c3F)cc21 when tested on Amaranthus retroflexus (AMARE).
Reply: 100

Ask: State measured Post-emergence % control (100 PPM) AMARE of the molecule C#CCN1C(=O)C(F)(F)Oc2cc(F)c(-c3c(F)c(F)c(F)c(F)c3F)cc21 with Amaranthus retroflexus (AMARE).
Reply: 98
